Target: T1, EsCas13d, nuclease-dead (Eubacterium siraeum, UniProt B0MS50, R295A;H300A;R849A;H854A)
T1 sequence: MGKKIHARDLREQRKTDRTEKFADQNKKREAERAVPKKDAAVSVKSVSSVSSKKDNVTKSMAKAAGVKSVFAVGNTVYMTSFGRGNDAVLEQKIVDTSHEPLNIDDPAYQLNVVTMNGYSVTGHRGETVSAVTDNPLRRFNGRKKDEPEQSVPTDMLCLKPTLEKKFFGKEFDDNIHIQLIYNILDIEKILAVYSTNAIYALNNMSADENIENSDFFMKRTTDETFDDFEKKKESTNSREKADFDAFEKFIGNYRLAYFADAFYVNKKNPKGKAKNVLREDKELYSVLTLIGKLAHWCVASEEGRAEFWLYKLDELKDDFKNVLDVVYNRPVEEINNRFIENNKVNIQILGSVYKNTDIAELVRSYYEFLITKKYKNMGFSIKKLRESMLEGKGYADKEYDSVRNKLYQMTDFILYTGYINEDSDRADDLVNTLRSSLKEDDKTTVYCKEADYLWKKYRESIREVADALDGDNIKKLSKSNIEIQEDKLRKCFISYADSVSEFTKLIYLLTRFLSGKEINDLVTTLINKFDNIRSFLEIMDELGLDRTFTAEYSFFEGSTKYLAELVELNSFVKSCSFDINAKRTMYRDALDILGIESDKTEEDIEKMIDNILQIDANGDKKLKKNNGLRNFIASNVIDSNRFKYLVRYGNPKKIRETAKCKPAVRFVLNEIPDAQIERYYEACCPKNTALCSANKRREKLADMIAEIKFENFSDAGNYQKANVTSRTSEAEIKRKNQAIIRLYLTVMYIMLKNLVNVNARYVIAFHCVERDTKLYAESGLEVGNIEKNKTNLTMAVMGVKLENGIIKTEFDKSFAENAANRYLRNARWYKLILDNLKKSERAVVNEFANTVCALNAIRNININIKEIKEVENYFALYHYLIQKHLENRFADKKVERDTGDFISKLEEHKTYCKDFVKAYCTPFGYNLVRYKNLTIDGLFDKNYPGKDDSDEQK
Assay: crRNA (strand 1, pre-loaded); Mg2+; 40 mM Tris-HCl pH 7.5, 150 mM NaCl, 6 mM MgCl2, 1 mM DTT, 0.1% Tween-20, 0.2 mg/ml BSA; 25 C; 10 min per concentration, then washed
Details: tags: His6-TwinStrep-SUMO cleaved; N-terminal SNAP kept (SNAP-Surface 488); label: 3' end held by stalled T7 RNA polymerase
pKd: −log10 of the molar value.

| BINDER | pKd |
| --- | --- |
| target 3 insG 3' of 8 (mixed) RNA 1: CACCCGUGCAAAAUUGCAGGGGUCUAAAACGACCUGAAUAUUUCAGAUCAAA RNA 2: GGGAAUGGAUCCACAUCUACGAAUUCGUUUUUGAUCUGAAAUAUGUCAGGUCUGCAGAUCGGAAGAGCACACGU | 7.28 |
| target 1 insC 3' of 18,insG 3' of 1 (mixed) RNA 1: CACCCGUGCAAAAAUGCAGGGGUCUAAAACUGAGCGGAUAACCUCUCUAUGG RNA 2: GGGAAUGGAUCCACAUCUACGAAUUCGUACCAUACGAGAGGUUAUCCGCUCAGCCGAGAUCGGAAGAGCACACGU | 7.47 |
